Data provenance: patent US20250353864A1

- TEST_TARGET: CLK1 (Homo sapiens (Human))
- Sequence (P49759 whole entry): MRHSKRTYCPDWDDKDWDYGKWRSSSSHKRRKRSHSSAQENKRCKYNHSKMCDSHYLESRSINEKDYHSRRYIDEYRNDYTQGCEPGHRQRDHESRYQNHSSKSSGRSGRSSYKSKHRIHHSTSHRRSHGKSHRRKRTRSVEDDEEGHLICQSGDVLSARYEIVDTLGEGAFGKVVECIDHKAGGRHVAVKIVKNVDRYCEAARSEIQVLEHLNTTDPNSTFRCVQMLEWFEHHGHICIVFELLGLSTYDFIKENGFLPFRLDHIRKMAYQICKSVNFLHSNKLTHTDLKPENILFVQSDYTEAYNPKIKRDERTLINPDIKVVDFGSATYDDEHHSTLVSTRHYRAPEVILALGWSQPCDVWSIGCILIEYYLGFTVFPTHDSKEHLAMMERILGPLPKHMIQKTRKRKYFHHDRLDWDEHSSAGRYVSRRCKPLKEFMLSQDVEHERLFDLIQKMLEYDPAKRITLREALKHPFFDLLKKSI
- ASSAY_NAME: Inhibition of CLK1 kinase activity evaluated at Nanosyn (ADP-Glo)
- Type: biochemical
- MEASUREMENT_CONTEXT: ADP-Glo luminescence
pIC50: −log10 of the molar value.
Threshold rule: pIC50 greater than or equal to 9 is t; below that, f.

COMPOUND	LABEL
CCOc1nn([C@@H](C)CO)c2c1/C=C/c1n[nH]c3ccc(cc13)-c1cnn(C)c1O[C@@H](C)CN(C)C2 [Example 155]	t
CCOc1nn(CCO)c2c1/C=C/c1n[nH]c3ccc(cc13)-c1cnn(C)c1O[C@@H](C)CN(CC)C2 [Example 177]	t
Cc1nn(C[C@H](C)O)c2c1/C=C/c1n[nH]c3ccc(cc13)-c1cnn(C)c1O[C@@H](C)CN(C)C2 [Example 123]	t
CC(C)Oc1nn(CCO)c2c1/C=C/c1n[nH]c3ccc(cc13)-c1cnn(C)c1O[C@H](C)CN(C1CC1)C2 [Example 212]	f
CCOc1nn(CCO)c2c1/C=C/c1n[nH]c3cc(F)c(cc13)-c1cnn(C)c1O[C@H](C)CN(CC)C2 [Ex. 277]	f
Cc1noc2c1/C=C/c1n[nH]c3ccc(cc13)-c1cnn(C)c1O[C@@H](C)CN(C)C2 [Example 141]	t
Cc1nn(CCO)c2c1/C=C/c1n[nH]c3ccc(cc13)-c1cnn(C)c1O[C@@H](C)CN(C(C)C)C2 [Example 114]	t
CCOc1nn(CC(C)(C)O)c2c1/C=C/c1n[nH]c3ccc(cc13)-c1cnn(C)c1O[C@@H](C)CN(CC)C2 [Example 222]	f
COCc1nn(CCO)c2c1/C=C/c1n[nH]c3ccc(cc13)-c1cnn(C)c1O[C@@H](C)CN(C)C2 [Example 261]	t

---

pIC50, CLK4 (Homo sapiens (Human), UniProt Q9HAZ1): measured values
pIC50: −log10 of the molar value.
READOUT_LABEL: pIC50

1. COCc1nn(CCO)c2c1/C=C/c1n[nH]c3ccc(cc13)-c1cnn(C)c1O[C@@H](C)CN(C)C2 9.36
2. CCOc1nn(CCO)c2c1/C=C/c1n[nH]c3ccc(cc13)-c1c(C#N)nn(C)c1O[C@@H](C)CN(CC)C2 7.42
3. CC(C)Oc1nn(CCO)c2c1/C=C/c1n[nH]c3ccc(cc13)-c1cnn(C)c1OC[C@H](C)N(C1CC1)C2 8.29
4. CC(C)Oc1nn(CCO)c2c1/C=C/c1n[nH]c3ccc(cc13)-c1cnn(C)c1O[C@@H](C)CN(C)C2 9.49
5. C[C@@H](C#N)Oc1nn(CCO)c2c1/C=C/c1n[nH]c3cc(F)c(cc13)-c1cnn(C)c1O[C@@H](C)CN(C)C2 8.75
6. CCOc1nn([C@@H](C)CO)c2c1/C=C/c1n[nH]c3ccc(cc13)-c1cnn(C)c1O[C@@H](C)CN(C)C2 9.09
7. CCOc1nccc2c1/C=C/c1n[nH]c3ccc(cc13)-c1cnn(C)c1O[C@@H](C)CN(C)C2 8.82
8. CC(C)Oc1nn([C@@H](C)CO)c2c1/C=C/c1n[nH]c3cc(F)c(cc13)-c1cnn(C)c1O[C@@H](C)CN(C)C2 8.82
9. CCOc1nn(CCO)c2c1/C=C/c1n[nH]c3ccc(cc13)-c1cnn(C)c1O[C@@H]1CCCN(C2)C1 8.81
10. CCN1Cc2c(c(OC(C)C)nn2CCO)/C=C/c2n[nH]c3cc(F)c(cc23)-c2cnn(C)c2O[C@@H](C)C1 8.27
11. C[C@H](C#N)Oc1nn(CCO)c2c1/C=C/c1n[nH]c3cc(F)c(cc13)-c1cnn(C)c1O[C@@H](C)CN(C)C2 8.91
12. CCOc1nn(CCO)c2c1/C=C/c1n[nH]c3ccc(cc13)-c1c(C)nn(C)c1O[C@@H](C)CN(C(C)C)C2 8.23
13. CCOc1nn(CCO)c2c1/C=C/c1n[nH]c3ccc(cc13)-c1cnn(C)c1OC[C@H](CC)N(C)C2 8.89
14. CC(C)Oc1nn(CCO)c2c1/C=C/c1n[nH]c3cc(F)c(cc13)-c1cnn(C)c1O[C@@H](C)CN(C)C2 8.59

---

pIC50: −log10 of the molar value.
pIC50, CLK1 (Homo sapiens (Human), UniProt P49759): measured values

COMPOUND	TEST_TARGET	pIC50
CCOc1nn(CCO)c2c1/C=C/c1n[nH]c3ccc(cc13)-c1cnn(C)c1O[C@H](C)CNC2	CLK1 (Homo sapiens (Human), UniProt P49759)	8.94
CCOc1nn(CCO)c2c1/C=C/c1n[nH]c3ccc(cc13)-c1cnn(CC)c1O[C@@H](C)CN(C)C2	CLK1 (Homo sapiens (Human), UniProt P49759)	9.41
Cc1nn(C)c2c1/C=C/c1n[nH]c3ccc(cc13)-c1cnn(C)c1O[C@@H](C)CN(C)[C@@H]2C (single isomer, unassigned)	CLK1 (Homo sapiens (Human), UniProt P49759)	9.68
C[C@H]1CN(C)Cc2c(c(C#N)nn2CCO)/C=C/c2n[nH]c3ccc(cc23)-c2cnn(C)c2O1	CLK1 (Homo sapiens (Human), UniProt P49759)	9.23

---

- TEST_TARGET: EGFR (D770_N771insNPG) (Homo sapiens (Human), UniProt P00533, INS770NPG)
- Sequence (P00533 other isoform, or with tags, fused parts or gaps del 1-668/ins NPG behind 770 limits assumed): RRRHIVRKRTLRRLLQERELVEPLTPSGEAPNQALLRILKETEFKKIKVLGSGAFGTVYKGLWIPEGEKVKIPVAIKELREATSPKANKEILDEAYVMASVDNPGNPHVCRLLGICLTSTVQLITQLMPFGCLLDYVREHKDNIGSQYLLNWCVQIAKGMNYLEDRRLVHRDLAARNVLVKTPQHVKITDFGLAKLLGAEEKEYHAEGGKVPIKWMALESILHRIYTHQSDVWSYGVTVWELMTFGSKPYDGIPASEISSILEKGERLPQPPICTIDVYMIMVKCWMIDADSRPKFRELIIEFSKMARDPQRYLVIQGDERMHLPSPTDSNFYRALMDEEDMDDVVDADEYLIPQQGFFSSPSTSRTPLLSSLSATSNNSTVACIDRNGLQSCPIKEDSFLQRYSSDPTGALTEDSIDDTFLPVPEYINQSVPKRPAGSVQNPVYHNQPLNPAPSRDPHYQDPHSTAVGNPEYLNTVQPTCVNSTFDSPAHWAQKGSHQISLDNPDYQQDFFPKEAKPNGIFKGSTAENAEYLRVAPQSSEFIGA
- ASSAY_NAME: HotSpot radiometric kinase assay, EGFR (D770_N771insNPG)
- Type: biochemical
- MEASUREMENT_CONTEXT: 10 μM ATP, read-out: EGFR (Δ770_N771insNPG) IC50
pIC50: −log10 of the molar value.
Quick list: pIC50 per entry.

COMPOUND	pIC50
C[C@H]1CN(C)Cc2nn3c(c2/C=C/c2n[nH]c4ccc(cc24)-c2cnn(C)c2O1)CN(CCS(C)(=O)=O)CC3 [Example 166]	7.34
CC(C)Oc1nn(CCO)c2c1/C=C/c1n[nH]c3ccc(cc13)-c1cnn(C)c1O[C@@H](C)C(=O)N(C)C2 [Example 220]	6.24
CC(C)Oc1nn(CCO)c2c1/C=C/c1n[nH]c3cc(F)c(cc13)-c1cnn(C)c1O[C@H](C)CN(C(C)C)C2 [Example 195]	6.81
C[C@H](C#N)Oc1nn(CCO)c2c1/C=C/c1n[nH]c3cc(F)c(cc13)-c1cnn(C)c1O[C@@H](C)CN(C)C2 [Ex. 268]	7.52
CC(C)Oc1nn(CCO)c2c1/C=C/c1n[nH]c3ccc(cc13)-c1cnn(C)c1O[C@H](C)CN(C1CC1)C2 [Example 212]	6.86
Cc1nn(CCO)c2c1/C=C/c1n[nH]c3ccc(cc13)-c1cnn(C)c1CN(C)CCO2 [Example 56]	7.30

---

- TEST_TARGET: EGFR L858R/T790M mutant (Homo sapiens (Human), UniProt P00533, L858R/T790M)
- Sequence (P00533 25-1210 T790M/L858R): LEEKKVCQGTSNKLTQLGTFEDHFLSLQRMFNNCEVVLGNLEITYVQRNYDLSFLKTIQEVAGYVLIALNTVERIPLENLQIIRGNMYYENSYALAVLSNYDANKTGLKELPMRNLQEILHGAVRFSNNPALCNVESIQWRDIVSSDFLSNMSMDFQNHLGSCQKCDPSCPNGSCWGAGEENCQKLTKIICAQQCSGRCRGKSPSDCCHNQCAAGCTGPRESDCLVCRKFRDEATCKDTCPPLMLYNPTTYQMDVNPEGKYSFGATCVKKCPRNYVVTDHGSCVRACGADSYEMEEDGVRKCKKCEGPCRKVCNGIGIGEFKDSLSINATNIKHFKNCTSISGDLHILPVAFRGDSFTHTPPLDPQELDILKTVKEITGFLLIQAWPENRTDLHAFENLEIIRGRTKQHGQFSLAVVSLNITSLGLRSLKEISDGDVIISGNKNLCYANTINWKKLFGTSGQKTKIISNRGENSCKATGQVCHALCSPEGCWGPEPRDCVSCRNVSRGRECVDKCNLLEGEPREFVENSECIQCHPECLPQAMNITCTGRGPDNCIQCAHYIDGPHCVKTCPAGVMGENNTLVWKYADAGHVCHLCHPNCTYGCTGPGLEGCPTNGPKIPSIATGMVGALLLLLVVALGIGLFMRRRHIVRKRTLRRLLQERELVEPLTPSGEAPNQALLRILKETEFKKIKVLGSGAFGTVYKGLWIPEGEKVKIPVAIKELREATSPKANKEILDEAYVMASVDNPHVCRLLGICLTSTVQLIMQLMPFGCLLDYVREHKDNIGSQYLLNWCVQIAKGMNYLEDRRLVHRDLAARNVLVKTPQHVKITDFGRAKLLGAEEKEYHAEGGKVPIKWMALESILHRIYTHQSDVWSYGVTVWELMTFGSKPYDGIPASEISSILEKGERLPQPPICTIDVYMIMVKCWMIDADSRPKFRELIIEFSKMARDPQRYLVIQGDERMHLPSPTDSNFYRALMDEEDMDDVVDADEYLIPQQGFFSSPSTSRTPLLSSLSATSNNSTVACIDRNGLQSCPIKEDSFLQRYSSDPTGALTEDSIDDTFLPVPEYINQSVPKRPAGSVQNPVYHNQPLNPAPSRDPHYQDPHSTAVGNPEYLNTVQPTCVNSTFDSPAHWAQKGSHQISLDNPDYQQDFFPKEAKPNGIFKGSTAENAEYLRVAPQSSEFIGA
- ASSAY_NAME: HotSpot radiometric kinase assay, EGFR L858R/T790M mutant
- MEASUREMENT_CONTEXT: 10 μM ATP
pIC50: −log10 of the molar value.
Threshold rule: pIC50 greater than or equal to 9 is YES; below that, NO.

MOLECULE	LABEL
Cc1nn([C@H]2COC[C@@H]2O)c2c1/C=C/c1n[nH]c3ccc(cc13)-c1cnn(C)c1OCCCO2 (single isomer, unassigned) [Example 76]	NO
Cc1c2c(nn1CCN1CCCC1)CN(C)C[C@@H](C)Oc1c(cnn1C)-c1ccc3[nH]nc(c3c1)/C=C/2 [Example 121]	NO
CCN1Cc2c(c(C)nn2C)/C=C/c2n[nH]c3ccc(cc23)-c2cnn(C)c2O[C@@H](C)C1 [Example 165]	YES
Cc1c2c(nn1C[C@H](C)O)CN(C)C[C@H](C)Oc1c(cnn1C)-c1ccc3[nH]nc(c3c1)/C=C/2 [Example 124]	NO
CCn1ncc2c1O[C@@H](C)CN(C)Cc1c(c(OC(C)C)nn1CCO)/C=C/c1n[nH]c3ccc-2cc13 [Example 169]	YES
C[C@H]1CN(C)Cc2c(c(OC3CN(S(C)(=O)=O)C3)nn2C)/C=C/c2n[nH]c3ccc(cc23)-c2cnn(C)c2O1 [Example 150]	YES
CCOc1nn(C)c2c1/C=C/c1n[nH]c3cc(F)c(cc13)-c1cnn(C)c1OC1CCCN(C2)C1 (stereo in doubt) [Example 178]	NO
CCc1noc2c1/C=C/c1n[nH]c3ccc(cc13)-c1cnn(C)c1O[C@@H](C)CN(C)C2 [Example 174]	NO
CCc1nn(CCN2CC[C@H](O)C2)c2c1/C=C/c1n[nH]c3ccc(cc13)-c1cnn(C)c1OCCCO2 [Example 69]	NO
CCN1Cc2c(c(C)nn2CCO)/C=C/c2n[nH]c3ccc(cc23)-c2cnn(C)c2O[C@@H](C)C1 [Example 133]	YES
